These entries and their values trace back to patent US20080026417A1.

test system: non-trichomonal hydrolases present in vaginal fluid; test: Experiment 8: polypeptide inhibition of hydrolases in whole vaginal fluid of uninfected women; type: biochemical, human; conditions: pH 8; Donor A whole vaginal fluid; ZRR-MNA; 10 mM polypeptide in substrate solution
Ends that are not written are not given here.
Hydrolase activity color score with polypeptide values by entry
Respond numerically, and do not add a unit to the figure.

[
  {
    "Substance": "RPKPQFFGLM [Arg-Pro-Lys-Pro-Gln-Phe-Phe-Gly-Leu-Met]",
    "Tested On": "non-trichomonal hydrolases present in vaginal fluid",
    "Experimental Result": 0.5
  }
]

If you can, please state the reported Hydrolase activity color score with polypeptide value of Arg-Lys-Asn-Val-Tyr (RKNVY; printed: Arg-Lys-Asn-Val-Tyr) . 0.5

Check `KPQLWP` too. 0.5

Check `KRQHPG` too. 2.5
